ASSAY TEXT: GSK_TCAKS: pIC50 HepG2 human cell line viability assay using luminiscence. […] Seeding density was checked to ensure that new mono-layers were not more than 50% confluent at the time of harvesting. Cell suspension was added to 500 mL of the same medium at a final density of 1.2 * 10^5 cells/mL. This cell suspension was dispensed (25 uL, 3000 cells per well) into 384-well clear-bottom plates using a Multidrop Combi dispenser. Prior to addition of the cell suspension, the screening compounds (250 nL) were pre-dispensed into the plates with an Echo liquid handler. Plates were incubated for 48 h at 37C, 5% CO2. After incubation, plates equilibrated at room temperature for 30 min before proceeding to develop the luminescent signal. The signal developer, CellTiter-Glo Reagent, was allowed to equilibrate at room temperature for 30 min and added to the plates (25uL per well) using a Multidrop Combi dispenser. Plates were left for 10 min at room temperature for stabilization and then read using a ViewLux.
Format: toxicity, cell-based
So I've got a bunch of compounds here, and I need their IC50 at 48 h values.
Your answer is read as µM, so omit the unit and give the number.

Return value of IC50 at 48 h for input COc1cc(F)c2ncc(F)c(CCN3CC[C@H](NCc4cc5c(cn4)OCS5)[C@@H](O)C3)c2c1 , no commentary.
50.1

Return value of IC50 at 48 h for input CC(=O)Nc1ccc(-c2csc(NC(=O)c3ccc([N+](=O)[O-])s3)n2)cc1 , no commentary.
50.1

Return value of IC50 at 48 h for input COc1ccc2ncc(F)c(NC(=O)[C@]3(O)CC[C@@H](NCc4ccc5c(c4)OCCO5)CC3)c2n1 , no commentary.
50.1

Return value of IC50 at 48 h for input CC1=C(C(=O)Nc2ccc(Cl)cc2)C(c2ccncc2)n2ncc(C(=O)Nc3ccccc3)c2N1 (stereo not given) , no commentary.
79.4

Return value of IC50 at 48 h for input CCNc1cc(-c2ccccn2)nc(Nc2ccc(OC)cc2)n1 , no commentary.
39.8
